# Species: Rattus norvegicus
# Measurement description: DrugMatrix - Regimen: Daily Repeat
# Assay type: toxicity, organism-based, Sprague-Dawley
# Design: regimen Daily Repeat, gender Male, age 6-8 weeks
# Settings: in vivo, po, 0 mg/kg, 72 h, tissue Plasma, route oral GAVAGE, dose level Control, time 3 day, vehicle 100 % WATER
Let's look at some compounds and their measured CREATINE PHOSPHOKINASE.
Reported endpoint: CREATINE PHOSPHOKINASE (u/L)

- COc1cc2c(N3CCN(C(=O)Nc4ccc(OC(C)C)cc4)CC3)ncnc2cc1OCCCN1CCCCC1: 392.83
- Clc1ccc(C(c2ccccc2Cl)C(Cl)Cl)cc1 (centres undefined): 601.83
- Nc1ccc(S(=O)(=O)Nc2ccnn2-c2ccccc2)cc1: 532.5
- CC1(C)S[C@@H]2[C@H](NC(=O)[C@H](N)c3ccc(O)cc3)C(=O)N2[C@H]1C(=O)O: 777.67
